assay: Stability of bio-PN and bio-PO in HEK293T cell lysate by 31P NMR; type: in vitro ADME, human; conditions: human, HEK293T cell lysate, HEK293T lysate (1 mg/mL), 1 mM peptide, room temperature, inorganic phosphate internal standard, read-out: remaining intact in HEK293T cell lysate
*1 amine or outer side, *2 acyl side, *3 side chain or, on linkers, in order; H or OH if unused. Where a SMILES comes first, the peptide text is derived from it. [ ]: non-standard residue; d: D form. The star is where a group is joined. X2 = C#CP(=O)(O)Nc1ccc(C[C@H](N[*:1])C(=O)[*:2])cc1; Biotin = O=C1N[C@H]2[C@H](CS[C@H]2CCCCC(=O)*)N1
endpointName: remaining at 18 h, 1 mM (%)
Field format: number, assumed %, no unit text.

(Q) Name the reported remaining at 18 h, 1 mM value associated with the compound C#CP(=O)(O)Nc1ccc(C[C@H](NC(=O)[C@H](CCC(=O)O)NC(=O)[C@H](CC(=O)O)NC(=O)[C@H](C)NC(=O)[C@H](CC(=O)O)NC(=O)CCCC[C@@H]2SC[C@@H]3NC(=O)N[C@@H]32)C(=O)N[C@@H](CC(C)C)C(=O)N[C@H](C(=O)N2CCC[C@H]2C(=O)N[C@@H](CCC(N)=O)C(=O)N[C@@H](CCC(N)=O)C(=O)NCC(N)=O)[C@@H](C)CC)cc1 [bio-PN] (Biotin-DADE[X2]LIPQQG-NH2)
(A) 80

Sourced from paper PMC12970513
